# System: Plasmodium falciparum
# measurement-description: Resistance index, ratio of IC50 for antiplasmodial activity against chloroquine-resistant Plasmodium falciparum K1 to IC50 for antiplasmodial activity against chloroquine-sensitive Plasmodium falciparum NF54
# Format: functional
Lab note: anything with Ratio IC50 below 2 is marked rule met; values at 2 or higher are marked rule not met.

| compound | group |
| --- | --- |
| C=CCN1C[C@@H](OCc2ccccc2)[C@@H](CNCc2cc3ccccc3nc2Cl)C(C)(C)C1 (relative stereo) | rule met |
| C=CCN1CCC(CNc2ccnc3ccccc23)C(C)(C)C1 (centres undefined) | rule met |
| Oc1cccc2ccc(CNCC3CC4(c5ccccc5)CCN3C4)nc12 (mixture of isomers) | rule not met |
| C=CCN1C[C@@H](OCc2ccccc2)[C@@H](CNc2ccnc3cc(Cl)ccc23)C(C)(C)C1 (relative stereo) | rule not met |
| C=CCN1CCC(CNc2ccnc3cc(Cl)ccc23)C(C)(C)C1 (centres undefined) | rule met |
| Clc1ccc2c(NCC3CC4(c5ccccc5)CCN3C4)ccnc2c1 (mixture of isomers) | rule met |
| C=CCN1C[C@@H](OCc2ccccc2)[C@@H](CNCc2ccnc3ccccc23)C(C)(C)C1 (relative stereo) | rule met |
| c1ccc(C23CCN(C2)C(CNc2ccnc4ccccc24)C3)cc1 (mixture of isomers) | rule met |
| C=CCN1C[C@@H](OCc2ccccc2)[C@@H](CNCc2ccc3ccccc3n2)C(C)(C)C1 (relative stereo) | rule met |
